Where do the numbers come from? From PubChem BioAssay (NCI).

System: HCT-15 colon
ASSAY_EXPLANATION: NCI tumour cell line growth inhibition, 48 h; in the data active = GI50 below about 0.43 µM; inactive = the rest
Field 'call' accepts 1 for active, -1 for inactive

Some solved cases for reference:
COc1ccc(-c2[nH]ncc2-c2cc3c(c(OC)c2)OCC(=O)N3)cc1 | -1
CC(=O)N1CCN(C2=Nc3ccccc3CO2)C1=S | -1
CC1=C([Se]CC(OC(=O)[C@@H](CSSC(C)(C)C)NC(=O)OC(C)(C)C)C(=O)NC(C)(C)C)C(=O)c2ccccc2C1=O (stereo partly drawn) | -1
O=C(c1ccccc1)c1c(NCC(O)CN2CCCC2)n(Cc2ccccc2)c(=O)n(Cc2ccccc2)c1=O (stereo not drawn) | -1

Asked: Entry "C[n+]1c(/C=C\C=C\N2CCCCC2)sc2ccccc21" : call = ?
Given back: -1

Asked: Entry "COc1ccc2c(c1)C(=O)c1c-2n(CCCN)c(=O)c2ccccc12" : call = ?
Given back: 1

Asked: Entry "COc1cccc([C@H]2CC(=O)c3cc4c(cc3N2)OCO4)c1" : call = ?
Given back: 1

Asked: Entry "CC(=O)C1=C(O)C=C2Oc3c(C(=O)/C=C/c4cc(C(F)(F)F)cc(C(F)(F)F)c4)c(O)c(C)c(O)c3[C@]2(C)C1=O" : call = ?
Given back: -1
